# PROTOCOL: JC-1 mitochondrial signal, unstimulated myeloma cells – cell-based, JC-1 fluorescence, RPMI8226, 24 h, 100 nL compound, profiling panel (AID 1169); further: test concentration not given here
# EXPERIMENTAL CONDITIONS: JC-1 mitochondrial potential fluorescence, higher = more signal
Listing: z-score of selected compounds

# COMPOUND, z-score
records = [
    ("O=C1C2C=CC(C(O)c3cccc(O)c3)N(Nc3ccc([N+](=O)[O-])cc3)C2C(=O)N1c1ccccc1 (stereo unspecified)", -0.217),
    ("COC(=O)c1c(CC[C@@H](CO)NC(=O)N2CCC[C@H]2Cn2cc(C3(O)CCCCC3)nn2)oc(C(C)=O)c1C(=O)OC", -0.667),
    ("C=CCC(OC(C)=O)[C@@H]1[C@@H](N(Cc2ccc(-c3cccc(C(F)(F)F)c3)o2)C(=O)Cc2ccc(OC)cc2)c2cc(OCCCO)ccc2N1C(=O)c1ccc(-c2ccccc2)cc1 (stereo partly specified)", 0.498),
    ("C=CCNC(=O)[C@@H]1[C@H]2C(=O)O[C@H](c3ccccc3)[C@H](c3ccccc3)N2[C@H](c2ccccc2OCCO)[C@@]12C(=O)Nc1ccc(C#CCC(C(=O)OC)C(=O)OC)cc12", -0.941),
    ("Cc1ccccc1C(O)C1C=CC2C(=O)NC(=O)C2N1Nc1ccccn1 (stereo unspecified)", 0.551),
    ("CC(C)C(CO)N1C(=O)[C@@H]2[C@H]3C(=O)OCC=C[C@H]3OC23C=CCN(c2ccc(Cl)cc2)C(=O)[C@@H]13 (stereo partly specified)", -0.212),
]
